pIC50 values by entry
- ASSAY_SYSTEM: Human plasma kallikrein (Homo sapiens (Human))
- Sequence (P03952 391-638): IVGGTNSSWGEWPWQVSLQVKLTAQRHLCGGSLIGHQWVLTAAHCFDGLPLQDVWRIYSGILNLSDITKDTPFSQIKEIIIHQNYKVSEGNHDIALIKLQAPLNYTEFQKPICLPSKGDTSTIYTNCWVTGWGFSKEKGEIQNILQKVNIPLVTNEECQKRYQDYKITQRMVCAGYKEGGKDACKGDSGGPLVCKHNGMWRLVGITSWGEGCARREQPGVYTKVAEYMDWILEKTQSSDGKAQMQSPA
- Sequence (P03952 20-390 partner): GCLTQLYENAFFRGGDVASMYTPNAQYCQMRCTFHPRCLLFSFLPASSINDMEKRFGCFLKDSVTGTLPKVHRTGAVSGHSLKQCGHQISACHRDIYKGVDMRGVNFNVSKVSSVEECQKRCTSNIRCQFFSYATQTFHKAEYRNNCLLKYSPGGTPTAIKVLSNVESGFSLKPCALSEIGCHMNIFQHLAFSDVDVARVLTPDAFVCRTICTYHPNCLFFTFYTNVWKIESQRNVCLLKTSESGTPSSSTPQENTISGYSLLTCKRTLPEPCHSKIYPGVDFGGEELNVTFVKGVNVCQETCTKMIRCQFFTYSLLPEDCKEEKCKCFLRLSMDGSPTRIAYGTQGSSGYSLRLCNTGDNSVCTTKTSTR
- PROCEDURE_SUMMARY: Determination of the IC50 for Plasma Kallikrein
- Type: biochemical
- CONDITION_DESCRIPTION: 37° C., fluorogenic substrate H-DPro-Phe-Arg-AFC; read-out: IC50 (human PKal)
pIC50: −log10 of the molar value.

| MOLECULE | ASSAY_SYSTEM | pIC50 |
| --- | --- | --- |
| NCc1ccc(CNC(=O)c2cn(Cc3csc(-c4ccccc4)n3)nc2C(F)(F)F)cc1 [Example 83] | Human plasma kallikrein (Homo sapiens (Human)) | 6.34 |
| Cc1oc(-c2ccccc2)nc1Cn1c(C)cc(C(=O)NCc2ccc(CN)cc2)c1C [Example 19] | Human plasma kallikrein (Homo sapiens (Human)) | 6.11 |
| Cc1cc(C(=O)NCc2ccc([C@H](C)N)cc2)c(C)n1Cc1csc(-c2ccccc2)n1 [Example 51] | Human plasma kallikrein (Homo sapiens (Human)) | 6.47 |
| Cc1cc(C(=O)NCc2ccc(CN)cc2)c(C)n1Cc1cccc(-c2ccccc2)n1 [Example 16] | Human plasma kallikrein (Homo sapiens (Human)) | 6.73 |
